test system: MES-SA; test: Cytotoxicity against human MES-SA cells assessed as inhibition of cell proliferation incubated for 72 hrs by MTT assay; assay type: functional, cell-based
Measurement label: pIC50
Numbers only, as −log10 of the molar value.

Entry CC[C@H](CO)Nc1nc(NCc2ccccc2)c2ncn(C(C)C)c2n1 [SELICICLIB] : reported pIC50 = ?
4.92

====

system: A549; assay: Cytotoxicity against p53 wild-type human A549 cells assessed as inhibition of cell proliferation incubated for 72 hrs by MTT assay; type: functional, cell-based; details: A549, 72 h
Measurement label: pIC50
Give bare numbers, as −log10 of the molar value.

Consider the molecule CC[C@H](CO)Nc1nc(NCc2ccccc2)c2ncn(C(C)C)c2n1 and give its measured pIC50.
4.80

====

system: MES-SA/Dx5; assay: Cytotoxicity against human MES-SA/Dx5 cells assessed as inhibition of cell proliferation incubated for 72 hrs by MTT assay; assay type: functional, cell-based; details: MES-SA/Dx5, 72 h
Measurement label: pIC50
Answers are plain numbers, as −log10 of the molar value.

# get_value(readout='pIC50', item= CC[C@H](CO)Nc1nc(NCc2ccccc2)c2ncn(C(C)C)c2n1 )
5.10
